protocolDescription: Solubility of the compound
Type: physicochemical
readoutType: solubility (µM)
Dear colleague, please return just the value in µM, with no unit written.

// query Quick one: solubility for O=C(Nc1ccc(-c2ccccc2)cc1)Nc1ccc(-c2ccnc3[nH]cnc23)cc1 ?
// result 2

* * *

protocolDescription: Half life in human hepatic S9 fraction
Assay type: ADME, subcellular, Liver
readoutType: half-life

// query Fill in: half-life of CCOC(=O)c1cccc(NC(=O)Nc2ccc(-c3ccnc4[nH]cnc34)cc2)c1 is ___
// result 8 min
